protein stability index values by entry
B1: RSPH3 (parent)
chain: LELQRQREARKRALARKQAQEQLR

Variants of: B1
Assay: protein stability index of a GFP-peptide fusion (GPS, HEK-293T) (PSI 1-6); higher = more stable;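 note: lentivirally expressed fusions sorted by FACS into six bins by GFP to DsRed ratio, PSI derived from sequencing read proportions per bin multiplied by bin number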
Conditions: c terminus: a fixed tail appended
// no unit string in output, number only

Worked examples follow.
R10E ... 4.08
L1H ... 3.96
K17A ... 4.1
Q6D ... 4.05
R5P ... 3.89

Next variant, please.
Per the record, A19K has protein stability index of 4.08
